system: HCV Replicon IB; experiment: HCV replicon assay in Huh-7 cells, genotype 1b (Rluc luciferase readout); format: cell-based, hepatitis C virus; conditions: Hepatitis C virus, 72 h; 10 uM; 1b-Rluc replicon, Huh-7 cells, 3 days; read-out: Inhibition @ 10 uM in 1b-Rluc
Measured endpoint: inhibition at 10 µM (%)
Give your result in % as a bare value.

{"Compound": "Cc1cc(C(=O)NCc2ccccn2)nc2c(C(F)(F)F)cc(C3CC3(C)C)cc12 (stereo not shown)", "inhibition at 10 µM (%)": 99.4}
{"Compound": "Cc1cc(C(=O)NCC(C)(C)O)nc2c(C(F)(F)F)cc(C3CC3)cc12", "inhibition at 10 µM (%)": 99}
{"Compound": "C#Cc1cc(OC(F)(F)F)cc2c(O)cc(C(=O)NCc3ccccn3)nc12", "inhibition at 10 µM (%)": 21.7}
{"Compound": "Cc1cc(-c2nnc(NCC3(C)OCCO3)o2)nc2c(C(F)(F)F)cc(C3CC3)cc12", "inhibition at 10 µM (%)": 100}

Any idea what its inhibition at 10 µM is? The compound is "Cc1cccnc1CNC(=O)c1cc(C)c2cc(C3CC3)cc(C(F)(F)F)c2n1"
99

Any idea what its inhibition at 10 µM is? The compound is "O=C(NCc1ccccn1)c1cc(Cl)c2cc(OC(F)F)cc(C(F)(F)F)c2n1"
99.5

Any idea what its inhibition at 10 µM is? The compound is "Cc1cc(C(=O)NC[C@H]2CC(F)(F)CN2)nc2c(C(F)(F)F)cc(C3CC3)cc12"
99.4

Recorded values, source patent US20120053148A1.
